molecular target: Cell division protein FtsZ (Escherichia coli K-12); assay: Inhibition of Escherichia coli FtsZ
Sequence (P0A9A6 whole entry): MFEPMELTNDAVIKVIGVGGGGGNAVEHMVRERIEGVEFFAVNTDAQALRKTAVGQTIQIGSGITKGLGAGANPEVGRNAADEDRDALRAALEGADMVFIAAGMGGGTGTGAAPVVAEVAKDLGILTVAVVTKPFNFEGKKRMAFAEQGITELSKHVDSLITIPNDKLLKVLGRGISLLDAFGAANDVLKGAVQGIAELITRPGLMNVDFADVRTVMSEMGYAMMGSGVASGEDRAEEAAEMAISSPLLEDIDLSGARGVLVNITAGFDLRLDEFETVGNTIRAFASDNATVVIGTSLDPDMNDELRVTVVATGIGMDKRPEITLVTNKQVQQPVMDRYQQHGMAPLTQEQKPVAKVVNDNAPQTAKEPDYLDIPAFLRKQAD
pIC50: −log10 of the molar value.
Reported endpoint: pIC50

| Given smiles | Reported endpoint | Measured |
| --- | --- | --- |
| CN(C)CCNc1nc(/C=C/c2ccc(Cl)cc2)nc2cc3ccccc3cc12 | pIC50 | 4.92 |

----------
target: Cell division protein FtsZ (Escherichia coli K-12); experiment: Inhibition of Escherichia coli FtsZ GTPase activity
Reported endpoint: IC50 (µM)

| Molecule | Reported endpoint | Measured |
| --- | --- | --- |
| COc1cc(C/C=C(/Cl)Cc2cc(O)cc(O)c2)c(OC)cc1Cl | IC50 | 37 |
| O=C/C=C/c1ccccc1 | IC50 | 5.81 |
| COC(=O)CC1Cc2cc3cc(OC)c(-c4c(OC)cc5cc6c(c(O)c5c4O)C(=O)OC(CC(=O)OC)C6)c(O)c3c(O)c2C(=O)O1 (stereo not given) | IC50 | 10.6 |
| O=C1C[C@@H](c2ccccc2)Oc2c(Cc3ccccc3O)c(O)c(Cc3ccccc3O)c(O)c21 | IC50 | 12.5 |
| O=C1C[C@@H](c2ccccc2)Oc2c(Cc3cc(Cc4ccccc4O)ccc3O)c(O)c(Cc3cc(Cc4ccccc4O)ccc3O)c(O)c21 | IC50 | 8.3 |
